The origin of these recorded values is a melting point compilation (Tetko et al.; mined from patent text by program, amines drawn as free bases though some values may be those of a salt).

assay endpoint: melting point

INSERT INTO results (compound, recorded_result) VALUES
  ('COc1cc(NC(=O)C(F)(F)F)cc(OC)c1C(C)=O', '172 to 173 °C'),
  ('CCCC(C)(c1ccc(O)cc1)c1ccc(O)cc1', '151 to 152 °C'),
  ('CCN(CC)C(=O)CCNC1(c2ccccc2Cl)C(=O)Nc2ccc(Cl)cc21 (centres undefined)', '185 °C'),
  ('Cn1cc(C#N)c(=O)c(-c2cccc(C(F)(F)F)c2)c1', '228 to 229 °C'),
  ('Cc1ccc(-c2nc(Cc3cccc(Br)c3)c(C)o2)cc1', '74 to 75 °C'),
  ('Nc1nc(Nc2ccc(N3CCOCC3)cc2)sc1C(=O)c1c(Cl)cccc1Cl', '245 to 247 °C'),
  ('COc1cccc2c1nc(C(F)F)n2-c1nc(C2CCCN(C(=O)OC(C)(C)C)C2)nc(N2CCOCC2)n1 (centres undefined)', '200 to 202 °C'),
  ('COc1nc(C(F)(F)F)cc(=O)n1-c1cc(C(=O)O)c(Cl)cc1F', '205 to 210 °C'),
  ('O=C(O)CCCCNS(=O)(=O)c1ccc(N2CCCCCC2)cc1', '135 to 140 °C'),
  ('CC(O)c1ccc(Cc2ccccc2CO)cc1 (centres undefined)', '96 to 97 °C'),
  ('O=C1N(N2CCOCC2)c2ccccc2C1(Cc1ccccc1)c1ccccc1 (centres undefined)', '159 to 161 °C'),
  ('FC(F)Sc1ccc(-c2ccc(Cl)cc2)[nH]1', '42 to 46 °C'),
  ('COC(=O)c1c(C)cc(-c2ccccc2)nc1-c1cccc([N+](=O)[O-])c1', '105 to 106 °C'),
  ('Cc1cc2ccc3c(c2o1)OC(CN1CC=C(c2c[nH]c4ccccc24)CC1)CO3 (centres undefined)', '198 to 200 °C'),
  ('CCCC(Cl)(Cl)C(NC(=O)c1ccc(Cl)cc1)Nc1c(Nc2cccnc2)c(=O)c1=O (centres undefined)', '258 to 259 °C'),
  ('CCOC(=O)c1c(S(C)(=O)=O)nc2sccn12', '158 to 161 °C'),
  ('ClCc1coc(-c2cc(Cl)cs2)n1', '72 to 73 °C'),
  ('NCC1(O)CCCc2c1ccc1c2OCO1 (centres undefined)', '140 to 142 °C'),
  ('COC(=O)c1cc(OCc2cn(-c3ccc(C(F)(F)F)cn3)nc2C(C)C)nn1C', '114 to 115 °C'),
  ('CC(C)(C)Sc1c(CC(C)(C)C(=O)O)n(Cc2ccc(Cl)cc2)c2ccc(OCc3ccc4cccnc4n3)cc12', '122 °C'),
  ('CNC(=O)CN1CCC2=C(C1)c1c(O)cc(C(C)C)cc1OC2(C)C', '178 to 190 °C'),
  ('CC(C)n1nc(-c2sc(NC(=O)c3ccc(CNCCO)cc3)nc2-c2ccccc2)ccc1=O', '111 to 113 °C'),
  ('Cc1c(C=C2CCc3cc4ccccc4n3C2=O)ncn1C(c1ccccc1)(c1ccccc1)c1ccccc1', '214 to 217 °C'),
  ('CN1Cc2c(-c3noc(CCl)n3)ncn2-c2cccc(Cl)c2C1=O', '208 to 210 °C'),
  ('COc1ccc(C2=CC(=Nc3c(C)cc(C)cc3C)N(C)CN2C(C)=O)cc1OC', '173 to 175 °C'),
  ('O=C(CC1CCCCC1)NC1CCCCC1', '164 to 165 °C'),
  ('Cc1cc(-c2cc(C(F)(F)F)nc(-c3ccnc(-c4ccc(S(N)(=O)=O)s4)c3)n2)ccc1Cl', '280 °C'),
  ('O=C(O)CCOc1cccc2ncccc12', '217 to 219 °C'),
  ('CN1C(=O)C(c2ccc(OC(F)F)cc2)(c2cccc(CCCCO)c2)N=C1N (centres undefined)', '63 to 66 °C'),
  ('CC12CC(=O)C3C(CCC4CC5OC5CC43C)C1CCC2=O (centres undefined)', '166 to 167 °C'),
  ('CCOC(=O)C1=Cc2cc(Cl)cc(CO[N+](=O)[O-])c2OC1C(F)(F)F (centres undefined)', '53 °C'),
  ('COc1cc2c(cc1OC)C(=CO)C(=O)N2', '216 to 217 °C'),
  ('CC(C)C[C@@H](C(=O)OCc1ccccc1)N1C(=O)[C@@H](N2C(=O)OC[C@@H]2c2ccccc2)[C@H]1CCc1ccccc1', '138 to 140 °C'),
  ('O=C(Nc1ccc(F)cc1)Oc1ccc2c(c1)N(Cc1ccccc1)CCC2', '130 °C');
